# Test system: KSHV lytic replication
# applied-conditions: human
Consider the following compounds; for each one, report its Selective index (CC50/IC50).
Answers are plain numbers.

> print(dat)
                                   compound            recorded.endpoint  result.value
1  CC(C)=CCCC(C)(O)C1Cc2c(O)cc(O)c(C(=O)c3ccccc3)c2O1 (single isomer, unassigned; (+)) [Compound 4a, (+)-japonicol H]  Selective index (CC50/IC50)         25.70
2  C=C(C)C1CCC2(C)Oc3c(c(O)cc(O)c3C(=O)C(C)C)CC12 (single isomer, unassigned; (-)) [Compound 1b, (−)-japonicol E]  Selective index (CC50/IC50)          7.78
3  CC(C)=CCCC(C)(O)C1Cc2c(O)cc(O)c(C(=O)C(C)C)c2O1 (single isomer, unassigned; (-)) [Compound 3b, (−)-japonicol G]  Selective index (CC50/IC50)          7.48
4  CC(C)=CCCC1(C)Oc2c(c(O)cc(O)c2C(=O)C(C)C)CC1O (single isomer, unassigned; (-)) [Compound 2b, (−)-japonicol F]  Selective index (CC50/IC50)          5.50
5  C=C(C)C1CCC2(C)Oc3c(c(O)cc(O)c3C(=O)C(C)C)CC12 (single isomer, unassigned; (+)) [Compound 1a, (+)-japonicol E]  Selective index (CC50/IC50)         23.49

// returns reported Selective index (CC50/IC50) for input CC(C)=CCCC(C)(O)C1Cc2c(O)cc(O)c(C(=O)C(C)C)c2O1 (single isomer, unassigned; (+)) [Compound 3a, (+)-japonicol G]
3.66
